Data provenance is paper PMC8809517.

- tested system: T1, GFP-9S library array, motif 4 ND N98K;D124S (synthetic construct, N98K;D124S)
- T1 chain: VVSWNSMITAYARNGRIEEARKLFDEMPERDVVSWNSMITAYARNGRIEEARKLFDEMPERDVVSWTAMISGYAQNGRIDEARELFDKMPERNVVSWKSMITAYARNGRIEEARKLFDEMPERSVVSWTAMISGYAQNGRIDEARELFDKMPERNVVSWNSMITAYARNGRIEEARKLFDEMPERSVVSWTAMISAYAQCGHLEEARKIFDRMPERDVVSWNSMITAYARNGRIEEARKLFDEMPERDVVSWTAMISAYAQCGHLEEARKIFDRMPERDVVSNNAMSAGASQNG
- test details: high-throughput RNA pulldown from lysate on Ni-NTA beads; HRP: 50 mM Tris pH 8, 150 mM NaCl, 1 mM beta-mercaptoethanol, 50 ug/ml BSA, 3 ug/ml yeast RNA, 0.5% heparin; ITC and FP: Tris pH 8, 200 mM KCl, 5% glycerol; MST: 50 mM Tris pH 8, 200 mM NaCl, 1 mM DTT, BSA, heparin, 0.05% Tween 20
- measurement parameters: tags: N-terminal His-eGFP; label: 5' IRDye 800CW
pKd: −log10 of the molar value.
attribute measured: pKd

> print(dat)
                            binder  recorded.measurement
1  AUUAUACGUGA (ssRNA) [IR-rpoA-U]                  7.39
2  AUUAAACGUGA (ssRNA) [IR-rpoA-A]                  6.92
